- target_or_system: Pseudomonas aeruginosa LpxC enzyme (Pseudomonas aeruginosa (strain ATCC 15692 / DSM 22644 / CIP 104116 / JCM 14847 / LMG 12228 / 1C / PRS 101 / PAO1))
- test_protocol: IC50 Assay, LpxC Enzyme from P. aeruginosa (PA LpxC Enzyme IC50)
- Assay type: biochemical
- conditions_used: Table 1; read-out: PA LpxC enzyeme IC50
quantity_measured: IC50 (nM)

> print(dat)
                                   compound  output.unit  endpoint.value
1  CC(=O)NC[C@@H]1CN(c2ccc(-c3ccc(CC[C@](C)(C(=O)NO)S(C)(=O)=O)cc3)c(F)c2)C(=O)O1           nM            1.48
2  CC(CCc1ccc(Sc2ccccc2)cc1)(C(=O)NO)S(C)(=O)=O (stereo not drawn)           nM            11.9
3  CC(CCc1ccc(-c2ccc(-c3cc(CO)no3)cc2)cc1)(C(=O)NO)S(C)(=O)=O (stereo not drawn)           nM            0.32

====

- System: Acinetobacter baumanii/haemolyticus: Multidrug-resistant clinical isolate (AB-3167)
- test_protocol: MIC determination (CLSI), AB-3167
- Type: cell-based
- conditions_used: Acinetobacter baumanii/haemolyticus multidrug-resistant clinical isolate AB-3167
quantity_measured: AB-3167 MIC

> print(dat)
                                   compound                          target.or.system  endpoint.value
1  CC(CCc1ccc(-c2ccc(OCCO)cc2F)cc1)(C(=O)NO)S(C)(=O)=O (centres unmarked) [Example 144]  Acinetobacter baumanii/haemolyticus: Multidrug-resistant clinical isolate (AB-3167)        ≧64 mg/L
2  CC(CCc1ccc(-c2ccc(OCCCO)cc2)cc1)(C(=O)NO)S(C)(=O)=O (centres unmarked) [Example 115]  Acinetobacter baumanii/haemolyticus: Multidrug-resistant clinical isolate (AB-3167)        ≧64 mg/L
3  CC(CCc1ccc(-c2ccc(CO)c(F)c2)cc1)(C(=O)NO)S(C)(=O)=O (centres unmarked) [Example 123]  Acinetobacter baumanii/haemolyticus: Multidrug-resistant clinical isolate (AB-3167)        ≧64 mg/L
4  Cc1cc(CCO)ccc1-c1ccc(CCC(C)(C(=O)NO)S(C)(=O)=O)cc1 (centres unmarked) [Example 156]  Acinetobacter baumanii/haemolyticus: Multidrug-resistant clinical isolate (AB-3167)        16 µg/mL
5  C[C@@](CCc1ccc(-c2ccc(OCCCN3CCOCC3)cc2)cc1)(C(=O)NO)S(C)(=O)=O [Example 179]  Acinetobacter baumanii/haemolyticus: Multidrug-resistant clinical isolate (AB-3167)         2 µg/mL
6  CC(CCc1ccc(-c2ccc(OCCCCO)cc2)cc1)(C(=O)NO)S(C)(=O)=O (centres unmarked) [Example 136]  Acinetobacter baumanii/haemolyticus: Multidrug-resistant clinical isolate (AB-3167)        ≧64 mg/L
7  CC(CCc1ccc(-c2ccc(C(=O)CO)cc2)cc1F)(C(=O)NO)S(C)(=O)=O (centres unmarked) [Example 183]  Acinetobacter baumanii/haemolyticus: Multidrug-resistant clinical isolate (AB-3167)        ≧64 mg/L
8  CC(CCc1ccc(-c2ccc(F)c(Cl)c2)cc1)(C(=O)NO)S(C)(=O)=O (centres unmarked) [Example 104]  Acinetobacter baumanii/haemolyticus: Multidrug-resistant clinical isolate (AB-3167)         2 µg/mL

====

Measured pIC50 of individual entries
- target_or_system: Pseudomonas aeruginosa LpxC enzyme (Pseudomonas aeruginosa (strain ATCC 15692 / DSM 22644 / CIP 104116 / JCM 14847 / LMG 12228 / 1C / PRS 101 / PAO1))
- test_protocol: IC50 Assay, LpxC Enzyme from P. aeruginosa (PA LpxC Enzyme IC50)
- Format: biochemical
- conditions_used: P. aeruginosa LpxC enzyme; read-out: PA LpxC enzyeme IC50
- Experimental: In order to assess the compounds biological activity, selected in-vitro assays were conducted on selected compounds. One of the assays measured the compounds ability to disrupt the synthesis of lipopolysaccharide, LPS, which is a component of the outer membrane of Gram-negative bacteria. Disruption of this synthesis is lethal to the bacteria. The assay determined the compound's ability to inhibit LpxC, which is the first enzyme in the biosynthetic pathway for LPS (measured as IC50). […]
pIC50: −log10 of the molar value.
quantity_measured: pIC50

> print(dat)
                                   molecule  endpoint.value
1  CC(CCc1ccc(-c2cc(F)ccc2F)cc1)(C(=O)NO)S(C)(=O)=O (stereo not shown) [Example 38]            9.12
2  CC(=O)c1cc(-c2ccc(CCC(C)(C(=O)NO)S(C)(=O)=O)cc2)ccc1O (stereo not shown) [Example 180]            9.08
3  CC(=O)c1ccc(-c2ccc(CC[C@](C)(C(=O)NO)S(C)(=O)=O)cc2)nc1 [Example 189]            9.15
4  CC(=O)Nc1ccc(-c2ccc(CC[C@](C)(C(=O)NO)S(C)(=O)=O)cc2)cc1 [Example 205]            8.76
5  CC(CCc1ccc(-c2ccc3c(c2)C(=O)NC3)c(F)c1)(C(=O)NO)S(C)(=O)=O (stereo not shown) [Example 203]            9.18
6  Cc1cc(F)ccc1-c1ccc(CCC(C)(C(=O)NO)S(C)(=O)=O)cc1 (stereo not shown) [Example 98]            8.91
7  CC(=O)c1ccc(-c2ccc(CCC(C)(C(=O)NO)S(C)(=O)=O)c(F)c2)nc1 (stereo not shown) [Example 187]            9.20

====

- Tested on: Klebsiella pneumoniae: Ciprofloxacin-resistant isolate, ESBL, clinical isolate (KP-3700)
- test_protocol: MIC determination (CLSI), KP-3700
- Type: cell-based
- Procedure: The in vitro antibacterial activity of compounds described in the Examples was evaluated by minimum inhibitory concentration (MIC) testing according to Clinical and Laboratory Standards Institute (CLSI, formerly NCCLS) guidelines. See: Clinical and Laboratory Standards Institute. Methods for Dilution Antimicrobial Susceptibility Tests for Bacteria that Grow Aerobically; Approved Standard-Seventh Edition. CLSI document M7-A7 [ISBN 1-56238-587-9]. […]
quantity_measured: KP-3700 MIC

> print(dat)
                                   compound  endpoint.value
1  CCC(CC)COc1ccc(CCC(C)(C(=O)NO)S(C)(=O)=O)cc1 (stereo not drawn) [Example 239]        ≧64 mg/L
2  CC(CCc1ccc(-c2ccc(C[C@@H](N)C(=O)O)cc2)cc1)(C(=O)NO)S(C)(=O)=O (stereo partly drawn) [Example 232]        ≧64 mg/L
3  CNC(=O)c1ccc(-c2ccc(CCC(C)(C(=O)NO)S(C)(=O)=O)cc2)cc1 (racemic) [Example 85]        ≧64 mg/L

====

- System: Acinetobacter baumanii/haemolyticus: Multidrug-resistant clinical isolate (AB-3167)
- test_protocol: MIC determination (CLSI), AB-3167
- Type: cell-based
- conditions_used: Acinetobacter baumanii/haemolyticus multidrug-resistant clinical isolate AB-3167
quantity_measured: AB-3167 MIC (mg/L)

> print(dat)
                                   molecule  output.unit  endpoint.value
1  CC(=O)c1ccc(-c2ccc(CCC(C)(C(=O)NO)S(C)(=O)=O)cc2)cc1F (stereo not shown) [Example 184]         mg/L              32
2  CC(CCc1ccc(-c2ccc(F)cc2)cc1)(C(=O)NO)S(C)(=O)=O (stereo not shown) [Example 27]         mg/L               8

====

- Tested on: Klebsiella pneumoniae: Ciprofloxacin-resistant isolate, ESBL, clinical isolate (KP-3700)
- test_protocol: MIC determination (CLSI), KP-3700
- Assay type: cell-based
- Method: The in vitro antibacterial activity of compounds described in the Examples was evaluated by minimum inhibitory concentration (MIC) testing according to Clinical and Laboratory Standards Institute (CLSI, formerly NCCLS) guidelines. See: Clinical and Laboratory Standards Institute. Methods for Dilution Antimicrobial Susceptibility Tests for Bacteria that Grow Aerobically; Approved Standard-Seventh Edition. CLSI document M7-A7 [ISBN 1-56238-587-9]. […]
Measured KP-3700 MIC of individual entries
quantity_measured: KP-3700 MIC (µg/mL)

> print(dat)
                                    molecule  endpoint.value
 1  Cc1cc(CCC(C)(C(=O)NO)S(C)(=O)=O)ccc1-c1ccc(F)cc1 (centres unmarked)               8
 2  CC(C)Oc1ccc(-c2ccc(CCC(C)(C(=O)NO)S(C)(=O)=O)cc2)cc1 (racemic)               4
 3  CC(CCc1ccc(-c2ccc(NS(C)(=O)=O)cc2)c(F)c1)(C(=O)NO)S(C)(=O)=O (centres unmarked)              32
 4  CC(O)C(=O)c1ccc(-c2ccc(CCC(C)(C(=O)NO)S(C)(=O)=O)cc2)cc1 (centres unmarked)               4
 5  CC(CCc1ccc(OCc2cc(F)ccc2C(F)(F)F)cc1)(C(=O)NO)S(C)(=O)=O (centres unmarked)              32
 6  CC(=O)c1ccc(-c2ccc(CCC(C)(C(=O)NO)S(C)(=O)=O)c(F)c2)cn1 (centres unmarked)               8
 7  Cc1cc(CCO)ccc1-c1ccc(CCC(C)(C(=O)NO)S(C)(=O)=O)cc1 (centres unmarked)               8
 8  CC(CCc1ccc(OCc2cccc3cccnc23)cc1)(C(=O)NO)S(C)(=O)=O (centres unmarked)              16
 9  CC(CCc1ccc(-c2ccc([N+](=O)[O-])cc2)cc1)(C(=O)NO)S(C)(=O)=O (racemic)               1
10  COc1ccc(-c2ccc(CCC(C)(C(=O)NO)S(C)(=O)=O)cc2)cc1OC (centres unmarked)              32
11  CC(=O)c1ccc(-c2ccc(CCC(C)(C(=O)NO)S(C)(=O)=O)cc2)cc1 (centres unmarked)               2
12  CC(CCc1ccc(-c2cnc3ccccc3c2)cc1F)(C(=O)NO)S(C)(=O)=O (centres unmarked)               8
13  CC(=O)Nc1ccc(-c2ccc(CC[C@](C)(C(=O)NO)S(C)(=O)=O)cc2)cc1              32
14  COC(C)c1ccc(-c2ccc(CCC(C)(C(=O)NO)S(C)(=O)=O)cc2)cc1 (mixture of isomers)              16
15  C[C@@](CCc1ccc(-c2ccc(O)cc2)cc1)(C(=O)NO)S(C)(=O)=O               8
16  CC(CCc1ccc(COc2ccc(F)cc2)cc1)(C(=O)NO)S(C)(=O)=O (centres unmarked)              16
